Please provide measured growth AUC for the entries that follow.
# Tested on: Akkermansia muciniphila
# experiment notes: growth AUC relative to DMSO control (median of replicates) (fraction); higher = more growth (less inhibition), active = hit call of the paper
# condition summary: 20 µM; 24 h
Lab note: jot down the number only; don't add units.

query: # return recorded growth AUC for entry "C[Si](Cn1cncn1)(c1ccc(F)cc1)c1ccc(F)cc1"
result: 0.895

query: # return recorded growth AUC for entry CCOP(=S)(Oc1cnc(C(C)(C)C)nc1)OC(C)C (centres undefined)
result: 0.912

query: # return recorded growth AUC for entry CCC(C)(NC(=O)c1cc(Cl)c(C)c(Cl)c1)C(=O)CCl (centres undefined)
result: 0.877

query: # return recorded growth AUC for entry "O=[N+]([O-])c1c(Cl)c(Cl)cc(Cl)c1Cl"
result: 1.02

query: # return recorded growth AUC for entry CC1(C)CCC(Cc2ccc(Cl)cc2)C1(O)Cn1cncn1 (centres undefined)
result: 1.01

query: # return recorded growth AUC for entry C#CCOc1ccc(CCNC(=O)C(OCC#C)c2ccc(Cl)cc2)cc1OC (centres undefined)
result: 1.02

query: # return recorded growth AUC for entry ClC1=C(Cl)[C@]2(Cl)C3CC=CC3[C@@]1(Cl)C2(Cl)Cl (some centres undefined)
result: 0.898

query: # return recorded growth AUC for entry "CCOC(=O)Nc1cccc(OC(=O)Nc2ccccc2)c1"
result: 0.899

query: # return recorded growth AUC for entry "Cn1cc(-c2ccccc2)c(=O)c(-c2cccc(C(F)(F)F)c2)c1"
result: 0.9

query: # return recorded growth AUC for entry CC[C@H]1CCCC(O[C@H]2CC[C@H](N(C)C)[C@@H](C)O2)[C@@H](C)C(=O)C2=C[C@@H]3[C@@H](C=C(C)[C@@H]4C[C@@H](O[C@@H]5O[C@@H](C)[C@H](OC)[C@@H](OC)[C@H]5OC)C[C@@H]34)[C@@H]2CC(=O)O1.CC[C@H]1CCCC(O[C@H]2CC[C@H](N(C)C)[C@@H](C)O2)[C@@H](C)C(=O)C2=C[C@@H]3[C@@H](C=C[C@@H]4C[C@@H](O[C@@H]5O[C@@H](C)[C@H](OC)[C@@H](OC)[C@H]5OC)C[C@@H]34)[C@@H]2CC(=O)O1 (some centres undefined)
result: 0.986

query: # return recorded growth AUC for entry "N#CCNC(=O)c1cnccc1C(F)(F)F"
result: 0.888

query: # return recorded growth AUC for entry "COC(=O)c1ccccc1S(=O)(=O)NC(=O)N(C)c1nc(C)nc(OC)n1"
result: 0.981

query: # return recorded growth AUC for entry "O=C(NC(=O)c1c(F)cccc1F)Nc1ccc(Oc2ccc(C(F)(F)F)cc2Cl)cc1F"
result: 1.02

query: # return recorded growth AUC for entry CC(COc1ccc(Oc2ccccc2)cc1)Oc1ccccn1 (centres undefined)
result: 0.989

query: # return recorded growth AUC for entry "Nc1ccc(Cc2ccc(N)c(Cl)c2)cc1Cl"
result: 0.988

query: # return recorded growth AUC for entry "CNC(=O)O/N=C/C(C)(C)SC"
result: 0.909

query: # return recorded growth AUC for entry "COc1ccc(C(c2ccc(OC)cc2)C(Cl)(Cl)Cl)cc1"
result: 0.973

query: # return recorded growth AUC for entry CC(Oc1ccc(Oc2ncc(C(F)(F)F)cc2Cl)cc1)C(=O)O (centres undefined)
result: 1.02

query: # return recorded growth AUC for entry COP(=S)(OC)Oc1ccc(S(C)=O)c(C)c1 (centres undefined)
result: 0.88

----------
# Tested on: Collinsella aerofaciens
# experiment notes: growth AUC relative to DMSO control (median of replicates) (fraction); higher = more growth (less inhibition), active = hit call of the paper
# condition summary: 20 µM; 24 h
measurement label: growth AUC
Lab note: jot down the number only; don't add units.

query: # return recorded growth AUC for entry COC(=O)C(C)N(C(=O)c1ccco1)c1c(C)cccc1C (centres undefined)
result: 0.913

query: # return recorded growth AUC for entry "Fc1ccc(Oc2ccnc3cc(Cl)cc(Cl)c23)cc1"
result: 0.967

query: # return recorded growth AUC for entry CNC(=O)O/N=C(\C)C(C)S(C)(=O)=O (centres undefined)
result: 0.953

query: # return recorded growth AUC for entry "CC(C)(O)C(Cl)(Cl)Cl.CC(C)(O)C(Cl)(Cl)Cl.O"
result: 0.999

----------
# System: Bacteroides clarus
# experiment notes: growth AUC relative to DMSO control (median of replicates) (fraction); higher = more growth (less inhibition), active = hit call of the paper
# condition summary: 20 µM; 24 h
Please provide measured growth AUC for the entries that follow.

query: # return recorded growth AUC for entry Cc1ccccc1CO[C@@H]1C[C@@]2(C(C)C)CC[C@]1(C)O2 (mixture of isomers)
result: 0.967 (inactive)

query: # return recorded growth AUC for entry "O=C1C(Cl)=C(Cl)C(=O)c2ccccc21"
result: 0.987 (inactive)

query: # return recorded growth AUC for entry CCC(C)n1c(=O)[nH]c(C)c(Br)c1=O (configuration not stated)
result: 0.99 (inactive)

query: # return recorded growth AUC for entry "Oc1ccc(C(c2ccc(O)cc2)(C(F)(F)F)C(F)(F)F)cc1"
result: 0.464 (active)

query: # return recorded growth AUC for entry "CC1(C)CN=C(NN=C(/C=C/c2ccc(C(F)(F)F)cc2)/C=C/c2ccc(C(F)(F)F)cc2)NC1"
result: 0.979 (inactive)

query: # return recorded growth AUC for entry "CNC(=O)O/N=C/C(C)(C)SC"
result: 0.993 (inactive)

query: # return recorded growth AUC for entry "CCOP(=S)(OCC)Oc1ccc(Cl)cc1Cl"
result: 0.963 (inactive)

query: # return recorded growth AUC for entry "O=[N+]([O-])/N=C1\NCCN1Cc1ccc(Cl)nc1"
result: 1.02 (inactive)

query: # return recorded growth AUC for entry COP(=S)(NC(C)C)Oc1ccc(C)cc1[N+](=O)[O-] (configuration not stated)
result: 0.977 (inactive)

query: # return recorded growth AUC for entry "O=C(Nc1ccccc1)N(Cc1ccc(Cl)cc1)C1CCCC1"
result: 0.991 (inactive)

query: # return recorded growth AUC for entry CNC(=O)O/N=C(\C)C(C)S(C)(=O)=O (configuration not stated)
result: 1.01 (inactive)

query: # return recorded growth AUC for entry "COC(=O)c1ccccc1S(=O)(=O)NC(=O)Nc1nc(C)nc(OC)n1"
result: 0.982 (inactive)

query: # return recorded growth AUC for entry "CCOCN(C(=O)CCl)c1c(C)cccc1CC"
result: 0.995 (inactive)

query: # return recorded growth AUC for entry "CNC(=O)Oc1ccccc1C(C)C"
result: 1.04 (inactive)

query: # return recorded growth AUC for entry "O=c1[nH]c(Cl)c(Cl)cc1Cl"
result: 0.967 (inactive)

query: # return recorded growth AUC for entry "O=C(O)c1cc(Oc2ccc(C(F)(F)F)cc2Cl)ccc1[N+](=O)[O-]"
result: 0.925 (inactive)

query: # return recorded growth AUC for entry "O=[N+]([O-])c1ccc(Oc2ccc(C(F)(F)F)cc2[N+](=O)[O-])cc1"
result: 0.878 (inactive)

----------
# System: Escherichia coli ED1a
# experiment notes: growth AUC relative to DMSO control (median of replicates) (fraction); higher = more growth (less inhibition), active = hit call of the paper
# condition summary: 20 µM; 24 h
measurement label: growth AUC
Lab note: jot down the number only; don't add units.

query: # return recorded growth AUC for entry "CCOC(=O)Nc1cccc(OC(=O)Nc2ccccc2)c1"
result: 1.01

query: # return recorded growth AUC for entry "CCCOCC(=Nc1ccc(Cl)cc1C(F)(F)F)n1ccnc1"
result: 0.994

query: # return recorded growth AUC for entry "CC(C)[C@H](C(=O)O[C@H](C#N)c1cccc(Oc2ccccc2)c1)c1ccc(Cl)cc1"
result: 0.962

query: # return recorded growth AUC for entry "c1nc[n]([Sn]([CH]2CCCCC2)([CH]2CCCCC2)[CH]2CCCCC2)n1"
result: 1.06

query: # return recorded growth AUC for entry "COP(=S)(OC)Oc1cc(Cl)c(Cl)cc1Cl"
result: 1

query: # return recorded growth AUC for entry "COCC(=O)N(c1c(C)cccc1C)[C@@H](C)C(=O)OC"
result: 1.01

query: # return recorded growth AUC for entry "CNC(=O)/C(=N/OC)c1ccccc1Oc1ccccc1"
result: 1

query: # return recorded growth AUC for entry "CCN(CC)N=O"
result: 1.01

----------
# Tested on: Lactobacillus paracasei
# experiment notes: growth AUC relative to DMSO control (median of replicates) (fraction); higher = more growth (less inhibition), active = hit call of the paper
# condition summary: 20 µM; 24 h
Please provide measured growth AUC for the entries that follow.
Lab note: jot down the number only; don't add units.

query: # return recorded growth AUC for entry "CCSCc1ccccc1OC(=O)NC"
result: 1.01

query: # return recorded growth AUC for entry "COP(=S)(OC)Oc1ccc(SC)c(C)c1"
result: 1.02

query: # return recorded growth AUC for entry "Nc1cc(Cl)cc(Cl)c1"
result: 1

query: # return recorded growth AUC for entry "CC(C)OC(=O)Nc1cccc(Cl)c1"
result: 0.985

query: # return recorded growth AUC for entry "Oc1c(Cl)c(Cl)cc(Cl)c1Cl"
result: 1.02

query: # return recorded growth AUC for entry "C=CCN(CC=C)C(=O)C(Cl)Cl"
result: 0.999

query: # return recorded growth AUC for entry O=C1C2CC=CCC2C(=O)N1SC(Cl)(Cl)Cl (centres undefined)
result: 1.01

query: # return recorded growth AUC for entry "CN(C)C(CSS(=O)(=O)[O-])CSS(=O)(=O)[O-].[Na+].[Na+]"
result: 1.01

query: # return recorded growth AUC for entry "CC(C)=NOCCOC(=O)[C@@H](C)Oc1ccc(Oc2cnc3cc(Cl)ccc3n2)cc1"
result: 0.974

query: # return recorded growth AUC for entry CC1(C)C(C=C(Cl)Cl)C1C(=O)OC(C#N)c1ccc(F)c(Oc2ccccc2)c1 (mixture of isomers)
result: 0.98

query: # return recorded growth AUC for entry "Oc1ccc(Cl)cc1Cl"
result: 1.01

query: # return recorded growth AUC for entry "COP(=O)(OC)O/C(=C/Br)c1ccc(Cl)cc1Cl"
result: 1.01

query: # return recorded growth AUC for entry "NC(=O)/N=C1/SCCN1Cc1ccc(Cl)nc1"
result: 0.975

query: # return recorded growth AUC for entry "CCOCn1c(-c2ccc(Cl)cc2)c(C#N)c(Br)c1C(F)(F)F"
result: 0.992

Source: the supplement of paper PMC12669032
